B1: VH:VL chains; a variant is named by its letters at X, in order (parent)
chain 1: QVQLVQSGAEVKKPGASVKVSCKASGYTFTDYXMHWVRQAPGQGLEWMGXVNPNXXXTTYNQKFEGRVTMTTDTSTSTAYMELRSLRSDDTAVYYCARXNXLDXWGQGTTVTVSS
chain 2: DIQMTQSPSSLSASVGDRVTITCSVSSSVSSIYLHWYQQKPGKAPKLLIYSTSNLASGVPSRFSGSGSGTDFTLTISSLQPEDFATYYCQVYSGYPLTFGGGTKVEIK

Variants of: B1
Assay: yeast display scFab, FACS + sequencing
QUANTITY KIND: non-specific binding call

1. SGEGGAVA: no binding
2. DATGGDGA: no binding
3. SGRGNAAD: no binding
4. DTGTGALV: no binding
5. SRGRDAWA: binds
6. YRGGGDGF: no binding
7. FARKGDGV: no binding
8. DAAGASVD: no binding
9. SEGRGDAA: no binding
10. FRGRGVGA: binds
11. SGREGDSA: no binding
12. YERRDVLY: binds
13. FRTRDAAA: binds
14. VKARGAAV: binds
15. DTTGGDGV: no binding
16. SRGGDDVA: no binding
17. AETKGDWV: no binding
18. VKGRADSA: no binding
19. YRARGSGV: binds
20. FRGRDVAV: binds
21. DAARGAAA: no binding
22. VTETGDSV: no binding
23. DRAGDSWA: no binding
24. FKAGGAVA: binds
25. SRGKGDAD: no binding
26. YRGESAVD: binds
27. VAKEGAWV: binds
28. YRGKSSGF: binds
29. DATGGDWA: no binding
30. FKKGSVGD: binds
31. YGTRSYGV: binds
32. FRGRGSVF: binds
33. VAGTGDAA: no binding
34. DETGGSSD: no binding
35. YRTRDVGF: binds
36. FRGRGAWF: binds
37. YRAEGAWS: binds
38. FKTRDFAY: binds
39. FKATTSGA: binds
40. DKGTDVGA: binds
41. YERRGSWS: no binding
42. DAGGAAAD: no binding
43. YKGRSAVY: binds
44. ARGRGAAD: binds
45. FRERGSAV: binds
46. FRGRDVVV: binds
47. FRERNAAA: binds
48. YRRRGSLD: binds
49. YRAKGAAA: binds
50. AARADSGD: no binding
51. SKGGSAWD: binds
52. YKRGSAGD: binds
53. YRGRGFWF: binds
54. YKGRGALA: binds
55. YRERGAWV: binds
56. VKEKGYLV: no binding
57. YAAKNDGA: no binding
58. ATRTDDVF: no binding
59. YRRRGDWD: binds
60. DTREGDVY: no binding
61. VKARGSGD: binds
62. FKRRSFGS: binds
63. YRRKGSGA: binds
64. YAGTGFVD: binds
65. YRARGFGV: binds
66. FRRGSAVA: binds
67. YRRKGSVD: binds
68. YRARSSGV: binds
69. YTRGADGV: no binding
70. AGGGNDVV: no binding
71. YRARGSAA: binds
72. DRAGDDVY: no binding
73. FTGRGAGV: binds
74. YRRGSVGV: binds
75. VKTGGSLD: no binding
76. DTRTAYGF: binds
77. SKTKSDGS: no binding
78. YARRGSGV: binds
79. ARKGSSGD: binds
80. YRRGGAWS: binds
81. FAGRDVGV: binds
82. VRGRGFLD: binds
83. ATAGSDGV: no binding
84. DTTKGDVV: no binding
85. VAGAGAGA: no binding
86. YRRRGFVV: binds
87. FRGRDAVD: binds
88. YARRGSLD: binds
89. DRGGDVSD: binds
90. SAGEGDGV: no binding
91. YRGKSDGS: binds
